meta.source: patent US7745450B2

System: β-adrenergic receptors
method-description: Modulation of isoproterenol-induced cAMP synthesis in rat C6 glioma
Format: cell-based
assay-context: cAMP synthesis induced by 5 μM (−) isoproterenol; read-out: I50
readout-type: pIC50
Give only the number. pIC50 is defined as minus log10 of concentration in molar units.

compound: CC(C)c1n[nH]c2c(NCc3ccccc3)nc(NCCCN)nc12 [Compound 17]
assay-value: 4.60

# next compound below
Query: # pIC50 lookup, item CC(C)c1n[nH]c2c(NCc3ccccc3)nc(NC(CO)C(C)C)nc12 (centres unmarked)
Result: 4.60

###

test-system: cdk1/cyclin B (CDC2) (Homo sapiens)
Sequence (P06493 whole entry, species assumed): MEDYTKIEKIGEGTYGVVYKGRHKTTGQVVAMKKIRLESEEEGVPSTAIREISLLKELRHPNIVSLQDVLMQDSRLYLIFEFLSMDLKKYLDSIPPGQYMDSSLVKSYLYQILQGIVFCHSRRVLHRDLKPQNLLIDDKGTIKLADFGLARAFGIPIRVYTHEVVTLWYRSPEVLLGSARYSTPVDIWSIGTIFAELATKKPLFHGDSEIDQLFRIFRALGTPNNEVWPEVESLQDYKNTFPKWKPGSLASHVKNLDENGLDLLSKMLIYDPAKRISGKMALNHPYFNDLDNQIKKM
Sequence (P14635 whole entry partner, species assumed): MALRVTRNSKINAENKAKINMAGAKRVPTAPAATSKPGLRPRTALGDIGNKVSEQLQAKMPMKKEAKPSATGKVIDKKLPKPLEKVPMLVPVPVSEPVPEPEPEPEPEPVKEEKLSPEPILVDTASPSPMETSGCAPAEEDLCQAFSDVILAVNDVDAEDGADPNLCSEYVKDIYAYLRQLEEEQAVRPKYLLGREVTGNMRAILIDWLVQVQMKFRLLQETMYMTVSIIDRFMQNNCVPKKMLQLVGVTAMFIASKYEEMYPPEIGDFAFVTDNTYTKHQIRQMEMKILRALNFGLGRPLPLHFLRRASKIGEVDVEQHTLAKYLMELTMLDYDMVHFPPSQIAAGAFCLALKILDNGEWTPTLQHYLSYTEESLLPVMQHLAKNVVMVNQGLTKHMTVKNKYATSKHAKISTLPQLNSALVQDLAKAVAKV
method-description: CDK inhibition assay, cdk1/cyclin B (CDC2) kinase, histone phosphorylation
Format: biochemical
Output schema: class label derived from IC50. Mapping: lo (below 3 nM), mid (3 nM to below 10 nM), hi (10 nM or more)

Example cases with answers are listed next.
substance-smiles: CC(C)c1n[nH]c2c(NCc3ccccc3O)nc(N[C@@H](CO)C(C)C)nc12
group-label: lo
--
substance-smiles: CC(C)c1n[nH]c2c(NCc3c(O)cc(Cl)cc3O)nc(N[C@@H](CO)C(C)C)nc12
group-label: lo
--
substance-smiles: Cc1n[nH]c2c(Nc3ccc(Cl)cc3)nc(NCCO)nc12
group-label: mid
--
substance-smiles: CC(=O)c1cccc(CNc2nc(N[C@@H](CO)C(C)C)nc3c(C(C)C)n[nH]c23)c1
group-label: lo
--
substance-smiles: CC(C)c1n[nH]c2c(N(C)CCc3ccc(O)c(O)c3)nc(N[C@@H](CO)C(C)C)nc12
group-label: hi

Query: Which IC50 band matches `CC[C@H](CO)Nc1nc(NCc2ccccc2)c2[nH]nc(C)c2n1` ?
Result: hi

Query: Which IC50 band matches `CC(=O)Oc1ccccc1CNc1nc(N[C@@H](CO)C(C)C)nc2c(C(C)C)n[nH]c12` ?
Result: mid

Query: Which IC50 band matches `Cc1n[nH]c2c(N(C)Cc3ccc(O)c(O)c3)nc(NCCO)nc12` ?
Result: hi

###

pIC50: recorded values
Test system: T-lymphocyte leukemia Molt3 cell line
method-description: Cell proliferation of Molt3, flow cytometric cell count
Format: cell-based, human
assay-context: Homo sapiens, MOLT-3; 96 hours
Give only the number. pIC50 is defined as minus log10 of concentration in molar units.

# example entries with known answers
compound: CCC(CO)Nc1nc(NCc2ccc(O)c(O)c2)c2ncn(C(C)C)c2n1 (stereo not drawn)
readout-type: pIC50
assay-value: 5.05
--
compound: CCC(CO)Nc1nc(NCc2ccc(O)c(O)c2)c2[nH]nc(C(C)C)c2n1 (stereo not drawn)
readout-type: pIC50
assay-value: 5.00
--
compound: CC(C)c1n[nH]c2c(NCc3ccccc3)nc(NCCCO)nc12
readout-type: pIC50
assay-value: 4.62
--
compound: CC(C)c1n[nH]c2c(SCc3ccccc3)nc(NCCCO)nc12
readout-type: pIC50
assay-value: 4.72
--
compound: CCCCCCNc1nc(NC(CO)c2ccccc2)c2[nH]nc(C(C)C)c2n1 (stereo not drawn)
readout-type: pIC50
assay-value: 5.10

# next compound below
Query: # pIC50 lookup, item CC(C)c1n[nH]c2c(NC(CO)c3ccccc3)nc(N3CCOCC3)nc12 (stereo not drawn)
Result: 4.70
